// reported pIC50 per item
target: Kallikrein-1 (Homo sapiens, UniProt P06870); experiment: Inhibition of human recombinant KLK1 expressed in Escherichia coli using Bachem I-1295 as substrate preincubated for 15 mins followed by substrate addition by microplate reader analysis
Sequence (P06870 whole entry): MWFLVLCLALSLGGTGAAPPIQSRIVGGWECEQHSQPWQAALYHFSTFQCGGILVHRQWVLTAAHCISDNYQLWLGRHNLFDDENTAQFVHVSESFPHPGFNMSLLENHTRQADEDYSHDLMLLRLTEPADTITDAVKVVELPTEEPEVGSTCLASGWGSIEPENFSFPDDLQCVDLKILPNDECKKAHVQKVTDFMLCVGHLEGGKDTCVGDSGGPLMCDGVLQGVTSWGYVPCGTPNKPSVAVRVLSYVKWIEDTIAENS
pIC50: −log10 of the molar value.

1) O=C(NC(c1ccc(O)cc1)P(=O)(Oc1ccccc1)Oc1ccccc1)OCc1ccccc1 (stereo not given); 7.07
2) N=C(N)Nc1ccc(CP(=O)(Oc2ccccc2)Oc2ccccc2)cc1; < 5.60
3) Nc1ccc(C(NC(=O)OCc2ccccc2)P(=O)(Oc2ccccc2)Oc2ccccc2)cc1 (stereo not given); < 5.00
4) NCCCC(NC(=O)OCc1ccccc1)P(=O)(Oc1ccccc1)Oc1ccccc1 (stereo not given); < 5.00

For the next question, use this compound.
State the recorded pIC50 for this entry: Nc1ccc(CC(NC(=O)OCc2ccccc2)P(=O)(Oc2ccccc2)Oc2ccccc2)cc1 (stereo not given) < 5.00

---

pIC50: −log10 of the molar value.
Observed pIC50 values for Acetylcholinesterase (Electrophorus electricus, UniProt O42275) are listed in what follows.

// solved cases for pIC50 follow
1. N=C(N)c1ccc(CCC(NC(=O)OCc2ccccc2)P(=O)(Oc2ccccc2)Oc2ccccc2)cc1 (stereo not given); < 4.70
2. O=C(NC(c1ccc(O)cc1)P(=O)(Oc1ccccc1)Oc1ccccc1)OCc1ccccc1 (stereo not given); < 5.00
3. N=C(N)Nc1ccc(CCP(=O)(Oc2ccccc2)Oc2ccccc2)cc1; < 5.00
4. Nc1ccc(C(NC(=O)OCc2ccccc2)P(=O)(Oc2ccccc2)Oc2ccccc2)cc1 (stereo not given); < 5.00
5. N=C(N)c1ccc(C(NC(=O)OCc2ccccc2)P(=O)(Oc2ccccc2)Oc2ccccc2)cc1 (stereo not given); < 5.00

State the recorded pIC50 for this entry: N=C(N)NCCCC(NC(=O)OCc1ccccc1)P(=O)(Oc1ccccc1)Oc1ccccc1 (stereo not given) < 5.00

Do the same for NCCCC(NC(=O)OCc1ccccc1)P(=O)(Oc1ccccc1)Oc1ccccc1 (stereo not given) please < 5.00

Do the same for N=C(N)Nc1ccc(CC(NC(=O)OCc2ccccc2)P(=O)(Oc2ccccc2)Oc2ccccc2)cc1 (stereo not given) please < 4.70

Do the same for N=C(N)Nc1ccc(C(NC(=O)OCc2ccccc2)P(=O)(Oc2ccccc2)Oc2ccccc2)cc1 (stereo not given) please < 5.00

Do the same for N=C(N)Nc1ccc(CP(=O)(Oc2ccccc2)Oc2ccccc2)cc1 please < 5.00

---

molecular target: Kallikrein-8 (Homo sapiens, UniProt O60259); experiment: Inhibition of human recombinant KLK8 expressed in Escherichia coli using Bachem I-1120 as substrate preincubated for 15 mins followed by substrate addition by microplate reader analysis
Sequence (O60259 whole entry): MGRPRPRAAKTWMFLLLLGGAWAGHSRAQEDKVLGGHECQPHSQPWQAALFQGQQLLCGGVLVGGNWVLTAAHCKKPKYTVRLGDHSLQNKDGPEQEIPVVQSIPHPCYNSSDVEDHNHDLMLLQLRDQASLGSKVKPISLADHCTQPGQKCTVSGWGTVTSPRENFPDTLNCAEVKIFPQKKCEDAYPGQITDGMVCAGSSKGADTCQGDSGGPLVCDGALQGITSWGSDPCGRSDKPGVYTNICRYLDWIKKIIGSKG
// reported IC50 per item
# number only, unit nM dropped from output

// solved cases for IC50 follow
1) N=C(N)NCCCC(NC(=O)OCc1ccccc1)P(=O)(Oc1ccccc1)Oc1ccccc1 (stereo unspecified); 125
2) N=C(N)Nc1ccc(C(NC(=O)OCc2ccccc2)P(=O)(Oc2ccccc2)Oc2ccccc2)cc1 (stereo unspecified); 1160
3) N=C(N)Nc1ccc(CC(NC(=O)OCc2ccccc2)P(=O)(Oc2ccccc2)Oc2ccccc2)cc1 (stereo unspecified); 170
4) N=C(N)Nc1ccc(CCP(=O)(Oc2ccccc2)Oc2ccccc2)cc1; 170
5) N=C(N)c1ccc(C(NC(=O)OCc2ccccc2)P(=O)(Oc2ccccc2)Oc2ccccc2)cc1 (stereo unspecified); 790
6) N=C(N)c1ccc(CCC(NC(=O)OCc2ccccc2)P(=O)(Oc2ccccc2)Oc2ccccc2)cc1 (stereo unspecified); 5000

For the next question, use this compound.
State the recorded IC50 for this entry: N=C(N)Nc1ccc(CP(=O)(Oc2ccccc2)Oc2ccccc2)cc1 1440

---

Observed pIC50 values for Coagulation factor X (Homo sapiens) are listed in what follows.
pIC50: −log10 of the molar value.

// solved cases for pIC50 follow
1) N=C(N)c1ccc(C(NC(=O)OCc2ccccc2)P(=O)(Oc2ccccc2)Oc2ccccc2)cc1 (stereo not given); < 5.60
2) N=C(N)Nc1ccc(CCP(=O)(Oc2ccccc2)Oc2ccccc2)cc1; < 5.00
3) O=C(NC(c1ccc(O)cc1)P(=O)(Oc1ccccc1)Oc1ccccc1)OCc1ccccc1 (stereo not given); < 5.00

State the recorded pIC50 for this entry: N=C(N)Nc1ccc(CC(NC(=O)OCc2ccccc2)P(=O)(Oc2ccccc2)Oc2ccccc2)cc1 (stereo not given) < 5.00

Do the same for NCCCC(NC(=O)OCc1ccccc1)P(=O)(Oc1ccccc1)Oc1ccccc1 (stereo not given) please < 3.60

---

molecular target: Kallikrein-1 (Homo sapiens); assay: Inhibition of human recombinant KLK1 expressed in Escherichia coli using Bachem I-1295 as substrate preincubated for 15 mins followed by substrate addition by microplate reader analysis
// reported pIC50 per item
Scale: pIC50 equals -log10([C]), with [C] in mol/L.

// solved cases for pIC50 follow
1) N=C(N)Nc1ccc(C(NC(=O)OCc2ccccc2)P(=O)(Oc2ccccc2)Oc2ccccc2)cc1 (stereo unspecified); 6.62
2) N=C(N)NCCCC(NC(=O)OCc1ccccc1)P(=O)(Oc1ccccc1)Oc1ccccc1 (stereo unspecified); 6.09

For the next question, use this molecule.
State the recorded pIC50 for this entry: N=C(N)c1ccc(CCC(NC(=O)OCc2ccccc2)P(=O)(Oc2ccccc2)Oc2ccccc2)cc1 (stereo unspecified) 5.86

---

// reported IC50 per item
target: Plasminogen (Homo sapiens, UniProt P00747); assay: Inhibition of human plasma plasmin using Biophen CS-21(66) as substrate
Sequence (P00747 97-580 limits assumed): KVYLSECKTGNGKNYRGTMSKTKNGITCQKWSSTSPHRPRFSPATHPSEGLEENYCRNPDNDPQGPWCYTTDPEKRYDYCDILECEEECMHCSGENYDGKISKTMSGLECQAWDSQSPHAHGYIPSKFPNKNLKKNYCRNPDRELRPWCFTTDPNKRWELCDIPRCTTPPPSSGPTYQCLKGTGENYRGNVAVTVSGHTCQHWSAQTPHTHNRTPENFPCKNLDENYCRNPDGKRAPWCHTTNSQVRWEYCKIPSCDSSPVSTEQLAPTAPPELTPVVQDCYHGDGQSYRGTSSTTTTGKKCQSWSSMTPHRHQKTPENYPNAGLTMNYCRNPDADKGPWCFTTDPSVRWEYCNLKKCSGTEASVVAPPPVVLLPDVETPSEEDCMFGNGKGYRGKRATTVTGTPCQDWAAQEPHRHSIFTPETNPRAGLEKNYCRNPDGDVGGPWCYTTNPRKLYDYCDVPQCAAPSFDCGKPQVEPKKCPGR
Sequence (P00747 581-810 limits assumed): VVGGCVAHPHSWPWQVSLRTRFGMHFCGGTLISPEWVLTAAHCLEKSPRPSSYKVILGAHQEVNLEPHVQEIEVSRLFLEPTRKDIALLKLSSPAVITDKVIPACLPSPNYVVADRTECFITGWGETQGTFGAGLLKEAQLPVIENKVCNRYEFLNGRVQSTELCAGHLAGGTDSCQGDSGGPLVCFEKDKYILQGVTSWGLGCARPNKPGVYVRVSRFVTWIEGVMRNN

1. N=C(N)Nc1ccc(CP(=O)(Oc2ccccc2)Oc2ccccc2)cc1; > 10 µM

State the recorded IC50 for this entry: NCCCC(NC(=O)OCc1ccccc1)P(=O)(Oc1ccccc1)Oc1ccccc1 (configuration not stated) > 250 µM

Do the same for O=C(NC(c1ccc(O)cc1)P(=O)(Oc1ccccc1)Oc1ccccc1)OCc1ccccc1 (configuration not stated) please > 10 µM

Do the same for N=C(N)Nc1ccc(C(NC(=O)OCc2ccccc2)P(=O)(Oc2ccccc2)Oc2ccccc2)cc1 (configuration not stated) please 4.9 µM

---

molecular target: Prothrombin (Homo sapiens); assay: Inhibition of human plasma thrombin using Biophen CS-21(66) as substrate preincubated for 15 mins followed by substrate addition by microplate reader analysis
// reported IC50 per item
# number only, unit µM dropped from output

// solved cases for IC50 follow
1. N=C(N)c1ccc(C(NC(=O)OCc2ccccc2)P(=O)(Oc2ccccc2)Oc2ccccc2)cc1 (centres undefined); 0.196
2. N=C(N)NCCCC(NC(=O)OCc1ccccc1)P(=O)(Oc1ccccc1)Oc1ccccc1 (centres undefined); 0.8
3. Nc1ccc(CC(NC(=O)OCc2ccccc2)P(=O)(Oc2ccccc2)Oc2ccccc2)cc1 (centres undefined); 62

For the next question, use this molecule.
State the recorded IC50 for this entry: N=C(N)Nc1ccc(C(NC(=O)OCc2ccccc2)P(=O)(Oc2ccccc2)Oc2ccccc2)cc1 (centres undefined) 250

---

molecular target: Urokinase-type plasminogen activator (Homo sapiens, UniProt P00749); assay: Inhibition of recombinant uPA (unknown origin) using Biophen CS-61(44) as substrate
// reported pIC50 per item
Scale: pIC50 equals -log10([C]), with [C] in mol/L.

State the recorded pIC50 for this entry: N=C(N)Nc1ccc(CCP(=O)(Oc2ccccc2)Oc2ccccc2)cc1 8.10

---

target: Kallikrein-2 (Homo sapiens); assay: Inhibition of human recombinant KLK2 expressed in Escherichia coli using Bachem I-1295 as substrate preincubated for 15 mins followed by substrate addition by microplate reader analysis
Sequence (P20151 whole entry): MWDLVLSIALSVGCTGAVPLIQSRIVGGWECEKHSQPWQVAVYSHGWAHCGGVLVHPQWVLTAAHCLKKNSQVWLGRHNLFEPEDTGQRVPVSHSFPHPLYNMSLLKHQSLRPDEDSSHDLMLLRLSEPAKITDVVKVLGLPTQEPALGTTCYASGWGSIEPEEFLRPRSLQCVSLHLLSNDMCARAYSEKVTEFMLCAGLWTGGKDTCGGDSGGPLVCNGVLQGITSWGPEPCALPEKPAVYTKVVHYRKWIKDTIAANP
// reported log10 of IC50 per item
Friendly reminder: values = log10 of IC50, unit nM.

// fetch Kallikrein-2 (Homo sapiens) log10 of IC50 for N=C(N)Nc1ccc(C(NC(=O)OCc2ccccc2)P(=O)(Oc2ccccc2)Oc2ccccc2)cc1 (stereo unspecified) 2.34

Do the same for N=C(N)Nc1ccc(CP(=O)(Oc2ccccc2)Oc2ccccc2)cc1 please 3.39

Do the same for N=C(N)Nc1ccc(CC(NC(=O)OCc2ccccc2)P(=O)(Oc2ccccc2)Oc2ccccc2)cc1 (stereo unspecified) please 2.72

Do the same for N=C(N)Nc1ccc(CCP(=O)(Oc2ccccc2)Oc2ccccc2)cc1 please 3.48

Do the same for N=C(N)c1ccc(CCC(NC(=O)OCc2ccccc2)P(=O)(Oc2ccccc2)Oc2ccccc2)cc1 (stereo unspecified) please 2.86

---

// reported pIC50 per item
target: UniProtKB Q9Y5K2; assay: Inhibition of human recombinant KLK4 expressed in Escherichia coli using Bachem I-1120 as substrate preincubated for 15 mins followed by substrate addition by microplate reader analysis
Sequence (Q9Y5K2 whole entry): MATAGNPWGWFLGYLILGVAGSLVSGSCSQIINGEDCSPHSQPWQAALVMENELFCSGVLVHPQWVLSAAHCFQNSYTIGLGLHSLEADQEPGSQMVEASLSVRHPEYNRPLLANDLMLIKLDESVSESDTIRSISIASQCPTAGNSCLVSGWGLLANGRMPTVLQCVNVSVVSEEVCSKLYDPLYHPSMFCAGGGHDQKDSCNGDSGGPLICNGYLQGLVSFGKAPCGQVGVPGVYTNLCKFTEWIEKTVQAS
pIC50: −log10 of the molar value.

// solved cases for pIC50 follow
1) NCCCC(NC(=O)OCc1ccccc1)P(=O)(Oc1ccccc1)Oc1ccccc1 (centres undefined); < 5.60
2) Nc1ccc(C(NC(=O)OCc2ccccc2)P(=O)(Oc2ccccc2)Oc2ccccc2)cc1 (centres undefined); < 5.00
3) O=C(NC(c1ccc(O)cc1)P(=O)(Oc1ccccc1)Oc1ccccc1)OCc1ccccc1 (centres undefined); < 5.00

For the next question, use this molecule.
State the recorded pIC50 for this entry: Nc1ccc(CC(NC(=O)OCc2ccccc2)P(=O)(Oc2ccccc2)Oc2ccccc2)cc1 (centres undefined) < 5.00

All values here come from ChEMBL document CHEMBL3769401.
